Measured CC50 of individual entries
assay: Cell viability; format: cell-based, human; conditions: human, U937 cells

NC(=O)c1ncn([C@@H]2O[C@H](CO)[C@@H](O)[C@H]2O)n1    > 160 µM

Report CC50 for "C=CC(=O)N1CCC[C@@H](n2nc(-c3ccc(Oc4ccccc4)cc3)c3c(N)ncnc32)C1"
26.5 µM

State its CC50: "CC(C)Oc1ccc(-c2nc(-c3cccc4c3CC[C@@H]4NCCO)no2)cc1C#N"
26 µM

Query CC50 for "CC[C@@H]1/C=C(\C)C[C@H](C)C[C@H](OC)[C@H]2O[C@@](O)(C(=O)C(=O)N3CCCC[C@H]3C(=O)O[C@H](/C(C)=C/[C@@H]3CC[C@@H](O)[C@H](OC)C3)[C@H](C)[C@@H](O)CC1=O)[C@H](C)C[C@@H]2OC"
62 µM

Fill in CC50 for record "CCOC(=O)N[C@@H]1CC[C@@H]2[C@@H](C1)C[C@H]1C(=O)O[C@H](C)[C@H]1[C@H]2/C=C/c1ccc(-c2cccc(F)c2)cn1"
> 80 µM

Give a short answer stating reported CC50 for "Cc1ccc(-c2ncc(Cl)cc2-c2ccc(S(C)(=O)=O)cc2)cn1" .
> 50 µM

Given CN(CCOc1ccc(CC2SC(=O)NC2=O)cc1)c1ccccn1 (centres unmarked) , respond with its CC50.
> 100 µM

Assign CC50 to the following record: CC(C)Cc1ccc(C(C)C(=O)O)cc1 (centres unmarked)
> 50 µM

----------
test system: U937 cells; test: Cell viability; type: cell-based, human; conditions: 50% cytotoxic concentration, MTS assay, U937 cells; validation panel (Table 2)
MEASUREMENT_TYPE: CC50

Fill in CC50 for "CCOC(=O)C1=C[C@@H](OC(CC)CC)[C@H](NC(C)=O)[C@@H](N)C1" tested with U937 cells.
> 100 µM

----------
test: Cell viability; format: cell-based, human; conditions: human, uninfected U937 cells
MEASUREMENT_TYPE: CC50 at 48 h

CC(C)n1c(/C=C/C(O)CC(O)CC(=O)O)c(-c2ccc(F)cc2)c2ccccc21 (stereo not drawn) [Fluvastatin]    > 90 µM
Cc1nc(Nc2ncc(C(=O)Nc3c(C)cccc3Cl)s2)cc(N2CCN(CCO)CC2)n1 [Dasatinib]    > 90 µM

Tell me CC50 at 48 h reported for CNCCCC1c2ccccc2C=Cc2ccccc21 [Protriptyline]
> 90 µM

Output CC50 at 48 h of CCC(C)(C)C(=O)O[C@H]1C[C@@H](C)C=C2C=C[C@H](C)[C@H](CC[C@@H]3C[C@@H](O)CC(=O)O3)[C@H]21 [Simvastatin]
66.8 µM

Supply CC50 at 48 h value. Item: O=C(O)C[C@H](O)C[C@H](O)/C=C/c1c(C2CC2)nc2ccccc2c1-c1ccc(F)cc1 [Pitavastatin]
> 90 µM

Report CC50 at 48 h for C[C@H]1COc2c(N3CCN(C)CC3)c(F)cc3c(=O)c(C(=O)O)cn1c23 [Levofloxacin]
> 90 µM
